# systemName: JNK1 (Homo sapiens, UniProt P45983)
# Construct: purchased Carna Biosciences
# Sequence (P45983 whole entry): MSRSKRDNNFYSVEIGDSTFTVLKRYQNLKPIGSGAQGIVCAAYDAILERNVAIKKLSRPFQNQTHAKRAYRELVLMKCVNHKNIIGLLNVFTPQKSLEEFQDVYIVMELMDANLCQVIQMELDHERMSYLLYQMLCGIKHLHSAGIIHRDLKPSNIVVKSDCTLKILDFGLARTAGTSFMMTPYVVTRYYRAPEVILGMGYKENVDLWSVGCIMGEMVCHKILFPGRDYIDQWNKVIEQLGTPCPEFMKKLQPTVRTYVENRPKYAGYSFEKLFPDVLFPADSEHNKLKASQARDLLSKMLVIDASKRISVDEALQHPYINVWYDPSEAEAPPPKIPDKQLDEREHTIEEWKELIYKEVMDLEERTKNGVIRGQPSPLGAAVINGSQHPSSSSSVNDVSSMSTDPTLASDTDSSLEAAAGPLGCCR
# testProtocol: JNK1 biochemical assays (one or more of: time resolved fluorescence, Z'-LYTE Cascade, radioactive)
# measurementParameters: Table 3; JNK1 IC50 activity level; read-out: Act. Level
The entries below come with measured IC50 values attached.

These solved cases illustrate the format of a correct answer.
compound	measuredAttribute	obsValue
CC(=O)N[C@H]1CC[C@H](Nc2ncc(C#N)c(N[C@@H]3CCC[C@H](O)C3)n2)CC1 [Example C-13]	IC50	< 200 nM
N#Cc1cnc(N[C@H]2CC[C@H](O)CC2)nc1N[C@@H]1CCCC[C@H](O)C1 [Example C-36]	IC50	< 200 nM
CCO[C@H]1CC[C@H](Nc2ncc(C#N)c(N[C@@H]3CCC[C@](C)(O)C3)n2)CC1 [Example C-28]	IC50	< 200 nM
CCO[C@H]1CC[C@H](Nc2ncc(C#N)c(N[C@@H]3CCOC3)n2)CC1 [Example C-39]	IC50	1000 to 10000 nM
CCO[C@H]1CC[C@H](Nc2ncc(C#N)c(NC3CCCC3)n2)CC1 [Example C-23]	IC50	200 to 800 nM

Answer with reported IC50 of CCO[C@H]1CC[C@H](Nc2ncc(C#N)c(N[C@@H]3CCCOC3)n2)CC1 [Example C-26]
200 to 800 nM

Answer with reported IC50 of CCC(C)(C)Nc1nc(N[C@H]2CC[C@H](O)CC2)ncc1C#N [Example C-62]
< 200 nM

Answer with reported IC50 of N#Cc1cnc(N[C@H]2CC[C@H](O)CC2)nc1NC1CC(F)(F)C1 [Example C-58]
1000 to 10000 nM

Answer with reported IC50 of CCO[C@H]1CC[C@H](Nc2ncc(C#N)c(N[C@H]3CCOC3)n2)CC1 [Example C-37]
200 to 800 nM

----------
# systemName: JNK1 (Homo sapiens, UniProt P45983)
# Construct: purchased Carna Biosciences
# testProtocol: JNK1 biochemical assays (one or more of: time resolved fluorescence, Z'-LYTE Cascade, radioactive)
# measurementParameters: tested in one or more of the JNK1 biochemical assays; read-out: Act. Level (JNK1 biochemical assay IC50 activity level)
pIC50: −log10 of the molar value.
measuredAttribute: pIC50

structureAsSmiles	systemName	obsValue
CO[C@H]1CC[C@H](Nc2ncc(C(N)=O)c(N[C@@H]3CCNC(=O)C3)n2)CC1	JNK1 (Homo sapiens, UniProt P45983)	6.10 to 6.70
CN(C)C(=O)[C@H]1CC[C@@H](Nc2nc(NC3CCC3)ncc2C(N)=O)CC1	JNK1 (Homo sapiens, UniProt P45983)	5.00 to 6.00
NC(=O)c1cnc(NC2CCC2)nc1N[C@H]1CC[C@@H](C(=O)N2CCCCC2)CC1	JNK1 (Homo sapiens, UniProt P45983)	6.00 to 6.10

Answer with reported pIC50 of CC(C)Nc1nc(N[C@H]2CC[C@H](OCC(F)(F)F)CC2)ncc1C(N)=O
> 6.70

Answer with reported pIC50 of CC(=O)N[C@H]1CC[C@H](Nc2ncc(C(N)=O)c(N[C@@H]3CCC[C@H](O)C3)n2)CC1
> 6.70

Answer with reported pIC50 of C[C@]1(O)CCC[C@@H](Nc2nc(N[C@H]3CC[C@H](O)CC3)ncc2C(N)=O)C1
> 6.70

Answer with reported pIC50 of CC[C@]1(O)CCC[C@@H](Nc2nc(N[C@H]3CC[C@H](OC)CC3)ncc2C(N)=O)C1
> 6.70

Answer with reported pIC50 of CO[C@H]1CC[C@H](Nc2ncc(C(N)=O)c(NC3CCC3)n2)CC1
> 6.70

Entry source: patent US12129237B2
